# System: Plasmodium falciparum Sir2 (PF13_0152, Sir2A)
# experimental-details: pfSir2 binders on small-molecule microarrays, primary screen, biochemical, small-molecule microarray, 635 nm fluorescence (AID 1098);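 further: score merges spot fluorescence intensity with its signal-to-noise ratio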
# measurement-setup: small-molecule microarray binding, fluorescence 635 nm; higher = more signal
assay-endpoint: composite z-score

1) COC(=O)CC=C[C@H](C)[C@@H](OCc1cccc(Br)c1)[C@@H](C)[C@H](OC)C1CCCCC1: 0.242
2) O=C1[C@H]2[C@H]3[C@H](O)[C@H](O)CC(=NOCc4ccccc4)[C@@H]3CC[C@H]2C(=O)N1C[C@@H]1CCCO1: 0.0048
3) CCOC(=O)CCN1C(=O)[C@H]2[C@H]3[C@H](O)[C@H](O)CC(=NOCC(C)C)[C@H]3CC[C@H]2C1=O: -0.108
4) COC(=O)CC=C[C@@H](C)[C@H](OCc1cccc(-c2ccccc2)c1)C1CCCCC1: -0.632

###

# Tested on: Chordin-like protein 2 (CHRDL2)
# experimental-details: CHRDL2 small-molecule binders, primary screen, biochemical, small-molecule microarray, 635 nm fluorescence (AID 1126);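 further: printed compound slides probed with Chrdl2 protein at 4 µg/mL for 1 h at 4 C; score merges 667 nm emission intensity with signal to noise over three replicate slides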
# measurement-setup: small-molecule microarray binding, fluorescence 635 nm; higher = more signal
assay-endpoint: composite z-score

1. COC(=O)C1=C(C)N(Cc2ccccc2)[C@]23O[C@](C(=O)OC)(C(=O)N2[C@@H]1c1ccccc1)C(C(=O)OC)=C3C(=O)OC: 0.503
2. COC(=O)[C@H](C)NC(=O)CCC1CC(OC(=O)NCCc2ccc(F)cc2)CC2(CCCC(COC(=O)NCCC(C)C)O2)O1 (some centres undefined): 0.0905
3. CCN1C(=O)[C@@H]2[C@H]3C(=CC[C@@H]2C1=O)C1(OCCCO1)[C@H]1O[C@H]1[C@H]3O: 0.333
4. CCCCC#C[C@@H]1C=C[C@H](OC(C)=O)[C@@H](COC(C)=O)O1: 0.282

###

# experimental-details: A549 lung cancer cell viability effects, profiling panel, resazurin fluorescence, 24 h, PK04 Diversity Set (AID 1171); further: test concentration not given here
# measurement-setup: higher = more signal, called active from +8 up or from −8 down
Class (required): determined from z-score; valid ranges are I = under -0.6, II = from -0.6 up to 0.2, III = 0.2 and over

1. O=C1[C@H]2[C@H]3[C@H](O)[C@H](O)CC(=NOCc4ccccc4)[C@H]3CC[C@H]2C(=O)N1Cc1ccc2c(c1)OCO2: III
2. CCOC(=O)[C@H](Cc1ccccc1)NC(=O)CCC1CC(OC(=O)NCc2cccc3ccccc23)CC2(CCCC(COC(=O)NCC(c3ccccc3)c3ccccc3)O2)O1 (stereo partly specified): III
3. CC(CCN1CCCCc2nc(C)c(C)cc21)=NO[C@H](C)c1cn([C@H](CO)Cc2ccccc2)nn1: II
4. CCOC(=O)[C@H](Cc1ccccc1)NC(=O)CCC1CC(OC(=O)NCCc2ccc(F)cc2)CC2(CCCC(COC(=O)NCCCN3CCCC3=O)O2)O1 (stereo partly specified): I
5. C[C@@H](c1ccccc1)N1C(=O)[C@H]2[C@H]3[C@H](O)[C@H](O)CC(=NO[C@@H]4O[C@H](CO)[C@@H](O)[C@H](O)[C@H]4O)[C@@H]3CC[C@H]2C1=O: I
6. COC(=O)CC=C[C@@H](C)[C@@H](C=NO[C@@H](C)c1cn([C@H](CO)Cc2ccccc2)nn1)NS(=O)(=O)c1ccc(C)cc1: I
7. C#CCCCON=C1C[C@@H](O)[C@@H](O)[C@@H]2[C@@H]3C(=O)N(c4cccc(Oc5ccccc5)c4)C(=O)[C@@H]3CC[C@H]12: II
8. CCOC(=O)[C@H](Cc1ccccc1)NC(=O)CCC1CC(OC(=O)NCCc2ccc(F)cc2)CC2(CCCC(COC(=O)NCCc3ccc(Cl)cc3)O2)O1 (stereo partly specified): II
9. CC(C)=CCCC(C)=CCON=C1C[C@@H](O)[C@@H](O)[C@@H]2[C@@H]3C(=O)N(C[C@@H]4CCCO4)C(=O)[C@@H]3CC[C@H]12: III
10. CO[C@H]1COC(=O)CCC[C@@H](C)[C@H](OC)COC(=O)[C@@H]2CCCN2C(=O)CC=C[C@@H]1C: II
11. CCOC(=O)NN=C1C[C@@H](O)[C@@H](O)[C@@H]2[C@@H]3C(=O)N([C@@H](C)c4ccccc4)C(=O)[C@@H]3CC[C@@H]12: III
12. CC(C)CON=C1C[C@@H](O)[C@@H](O)[C@@H]2[C@@H]3C(=O)N(C(C)(C)C)C(=O)[C@@H]3CC[C@H]12: I
13. Cc1cc2c(nc1C)CCCN2CC(O)CN1CCCc2nc(C)c(C)cc21: II
14. C[n+]1ccc(-c2ccc(CO)cc2)cc1: I
15. C[C@H]1CC[C@H]2C(=O)O[C@H](COc3ccc(C(C)(C)C)cc3)CN2[C@@H]1c1ccc(Br)cc1: III
16. O=C1CCCC(C2=CCCCC2=O)C1 (stereo unspecified): I
